parameter-measured: melting point

Q) If you can, please state the reported melting point value of "CS(=O)(=O)c1nnc(COc2ccc(Br)cc2)o1" .
A) 97 to 99 °C

Q) Record: "CS(=O)(=O)c1nnc(COc2ccc(Cl)cc2)s1"
A) 119 to 120 °C

Q) Record: "O=S(=O)(Cc1ccccc1)c1nnc(COc2ccc(Br)cc2)o1"
A) 142 to 143 °C

Q) Record: "CS(=O)(=O)c1nnc(COc2ccc(Cl)cc2)o1"
A) 113 to 114 °C

Q) Record: "O=S(=O)(Cc1ccccc1)c1nnc(COc2ccc(Cl)cc2)s1"
A) 140 to 141 °C

Q) Record: "CS(=O)(=O)c1nnc(COc2ccc(Cl)cc2Cl)s1"
A) 160 to 162 °C

Q) Record: "CS(=O)(=O)c1nnc(COc2ccc(Br)cc2)s1"
A) 114 to 115 °C

Q) Record: "O=S(=O)(Cc1ccccc1)c1nnc(COc2ccc(Cl)cc2Cl)o1"
A) 121 to 122 °C

Q) Record: "O=S(=O)(Cc1ccccc1)c1nnc(COc2ccc(Cl)cc2)o1"
A) 126 to 128 °C

Q) Record: "CCS(=O)(=O)c1nnc(COc2ccc(Cl)cc2Cl)s1"
A) 127 to 128 °C

Q) Record: "CS(=O)(=O)c1nnc(COc2ccc(F)cc2)s1"
A) 107 to 109 °C

Q) Record: "O=S(=O)(Cc1ccccc1)c1nnc(COc2ccc(F)cc2)s1"
A) 132 to 134 °C

Q) Record: "Cc1cc(Cl)ccc1OCc1nnc(S(=O)(=O)Cc2ccccc2)s1"
A) 125 to 126 °C

Q) Record: "CCS(=O)(=O)c1nnc(COc2ccc(F)cc2)s1"
A) 89 to 90 °C

Q) Record: "Cc1cc(Cl)ccc1OCc1nnc(S(C)(=O)=O)s1"
A) 160 to 161 °C

Q) Record: "O=S(=O)(Cc1ccccc1)c1nnc(COc2ccc(F)cc2)o1"
A) 94 to 96 °C

Q) Record: "O=S(=O)(Cc1ccccc1)c1nnc(COc2ccc(Br)cc2)s1"
A) 147 to 148 °C

Q) Record: "O=S(=O)(Cc1ccccc1)c1nnc(COc2ccccc2)o1"
A) 95 to 96 °C

Q) Record: "O=S(=O)(Cc1ccccc1)c1nnc(COc2ccc(Cl)cc2Cl)s1"
A) 124 to 125 °C

Q) Record: "Cc1cc(Cl)ccc1OCc1nnc(S(=O)(=O)Cc2ccccc2)o1"
A) 144 to 145 °C

Q) Record: "CS(=O)(=O)c1nnc(COc2ccc(F)cc2)o1"
A) 108 to 110 °C
